We begin with a simple list: items and their reported Fold Activity.
assay.comment: Saturation mutagenesis of SEQ ID NO:109: dicamba decarboxylation activity of point mutants (CO2 released), fold of backbone (Tables 7, 8, Megatable 1)
test.conditions: decarboxylation activity (CO2 released) of point mutant vs unmutated backbone protein; backbone SEQ ID NO: 109
Numbers only; they are read as fold.

INSERT INTO assay_data (molecule, measurement_label, unit_tag, number) VALUES
  ('137 (protein, Dicamba decarboxylase variant) MAQGKVALEEHFAIPETLQDSAGFVPGDYWKELQHRLLDIQDTRLKLMDAHGIETMILSLAAPAVQAIPDRRKAIEIARRANDFLAEECAKRPDRFLAFAALPLQDPDAATEELQRCVNTLGFVGALVNGFSQEGDGQTPLYYDLPQYRPFWGEVEKLDVPFYLHPRNPLPQDSRIYDGHPWLLGPTWAFAQETAVHALRLMASGLFDEHPRLNIILGHMGEGLPYMMYRIDHRIAWVHEPPRYPAKRRFMDYFNENFHITTSGNFRTQTLIDAILEIGADRILFSTDWPFENIDHAADWFNATSIAEADRLKIGRTNARRLFKLDGA', 'Fold Activity', 'fold', 1.1);

Moving on to another molecule below.
Endpoint output: Fold Activity of 145 (protein, Dicamba decarboxylase variant) MAQGKVALEEHFAIPETLQDSAGFVPGDYWKELQHRLLDIQDTRLKLMDAHGIETMILSLAAPAVQAIPDRRKAIEIARRANDFLAEECAKRPDRFLAFAALPLQDPDAATEELQRCVNDLGFVGALVNGFSVEGDGQTPLYYDLPQYRPFWGEVEKLDVPFYLHPRNPLPQDSRIYDGHPWLLGPTWAFAQETAVHALRLMASGLFDEHPRLNIILGHMGEGLPYMMYRIDHRIAWVKLPPRYPAKRRFMDYFNENFHITTSGNFRTQTLIDAILEIGADRILFSTDWPFENIDHATDWFNATSIAEADRVKIGRTNARRLFKLDGA . Value?
1.2
